Source of measurements: patent US5962502A

- test.system: gastrin receptors or type-B cholecystokinin (CCK-B) receptors (Oryctolagus cuniculus, UniProt P46627)
- Construct: Rabbit gastric mucous-membrane cells were prepared by conventional techniques; endogenous in cells; host or cells: freshly isolated rabbit gastric mucosal cells, enriched by elutriation to about 70% parietal cells
- Sequence (P46627 1-452): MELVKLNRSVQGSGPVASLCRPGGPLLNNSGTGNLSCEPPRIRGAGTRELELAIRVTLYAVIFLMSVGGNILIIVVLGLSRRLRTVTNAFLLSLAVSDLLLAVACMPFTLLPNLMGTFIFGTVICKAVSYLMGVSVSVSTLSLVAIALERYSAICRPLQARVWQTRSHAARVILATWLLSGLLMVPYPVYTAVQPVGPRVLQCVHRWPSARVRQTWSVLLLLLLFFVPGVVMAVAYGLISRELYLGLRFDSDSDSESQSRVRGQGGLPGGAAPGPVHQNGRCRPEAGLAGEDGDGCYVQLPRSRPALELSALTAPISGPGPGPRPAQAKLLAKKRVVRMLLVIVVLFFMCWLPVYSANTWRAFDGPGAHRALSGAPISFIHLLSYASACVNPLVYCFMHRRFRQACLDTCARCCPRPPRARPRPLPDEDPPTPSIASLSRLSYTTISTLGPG
- assay.name: Inhibition of the gastrin-induced increase of cytosolic calcium in rabbit gastric mucous-membrane cells (Fura 2)
- Format: cell-based
- condition.summary: data taken from Table 4 (rabbit gastric mucous cells), reprinted in Table 6
Just a reminder that ties go to false (0): only CCK-B-antagonistic activity IC50 (II) strictly below 30 nM counts as true (1).

Here's what some known entries look like.
INSERT INTO measurements (molecule, class_label) VALUES
  ('O=C(O)CC[C@@H](NC(=O)c1cc(Cl)cc(Cl)c1)C(=O)N1CCC2(CCCC2)CC1 [CR 2194, reference compound]', 'false (0)'),
  ('O=C(CC[C@@H](NC(=O)c1cc(Cl)cc(Cl)c1)C(=O)N1CCC2(CCCC2)CC1)N[C@@H](Cc1ccccc1)C(=O)O [Compound 10]', 'false (0)'),
  ('O=C(CC[C@@H](NC(=O)c1cc(Cl)cc(Cl)c1)C(=O)N1CCC2(CCCC2)CC1)N[C@H](Cc1ccccc1)C(=O)O [Compound 9]', 'false (0)'),
  ('O=C(CC[C@@H](NC(=O)c1cc(Cl)cc(Cl)c1)C(=O)N1CCC2(CCCC2)CC1)N[C@H](Cc1c[nH]c2ccccc12)C(=O)O [Compound 21]', 'true (1)'),
  ('O=C(CC[C@@H](NC(=O)c1cc(Cl)cc(Cl)c1)C(=O)N1CCC2(CCCC2)CC1)N[C@H](Cc1ccccn1)C(=O)O [Compound 27]', 'false (0)');

Query :: For this molecule, is CCK-B-antagonistic activity IC50 (II) lower than 30 nM? O=C(CC[C@@H](NC(=O)c1cc(Cl)cc(Cl)c1)C(=O)N1CCC2(CCCCC2)CC1)N[C@H](Cc1c[nH]c2ccccc12)C(=O)O [Compound 30]
Result :: true (1)

Query :: Strictly below 30 nM in CCK-B-antagonistic activity IC50 (II)? O=C(CC[C@@H](NC(=O)c1cc(Cl)cc(Cl)c1)C(=O)N1CCC2(CCCC2)CC1)N[C@H](Cc1cccc2ccccc12)C(=O)O [Compound 25]
Result :: true (1)
